These entries and their values trace back to patent US11713318B2.

Experiment: Cytotoxicity tested by Eurofins Pharma Discovery Services
Format: cell-based
Details: human, Hep G2 cells; Hep G2, Eurofins; at the concentration given as IC50 bound; read-out: cell viability at the highest or lowest test concentration
assay.readout: viability (%)
State the answer as a number, implicitly in %.

Q. I would be grateful if you could share the reported viability for `C[N+](C)(C)CCCCOc1cc(/C=C/c2ccc(/C=C/c3cc(OCCCC[N+](C)(C)C)cc(OCCCC[N+](C)(C)C)c3)cc2)cc(OCCCC[N+](C)(C)C)c1.[I-].[I-].[I-].[I-]` .
A. 70

====

System: E. coli ATCC25922 (WT)
Experiment: MIC against resistant strains, Tables 5a-5d
Assay type: cell-based
Settings: Escherichia coli, n = 3
Description: Compounds described herein were evaluated for growth inhibition against a variety of bacterial species, including strains that have developed resistance to common antibacterial treatments, according to the procedure described herein, or by analogous procedures known to those skilled in the art. […]
Answer each item with its documented MIC.
State the answer as a number, implicitly in µg/mL.

Q. I would be grateful if you could share the reported MIC for CCCCCC[N+](C)(C)CCCCOc1cc(/C=C/c2ccc(/C=C/c3cc(OCCCC[N+](C)(C)CCCCCC)cc(OCCCC[N+](C)(C)CCCCCC)c3)cc2)cc(OCCCC[N+](C)(C)CCCCCC)c1.[I-].[I-].[I-].[I-] [Formula T] .
A. 2

Q. Input CCCCCC[N+](C)(C)CCCOc1cc(/C=C/c2ccc(/C=C/c3cc(OCCC[N+](C)(C)CCCCCC)cc(OCCC[N+](C)(C)CCCCCC)c3)cc2)cc(OCCC[N+](C)(C)CCCCCC)c1 [Formula BB]
A. 2

Q. Input CCCC[N+](C)(C)CCOc1cc(/C=C/c2ccc(/C=C/c3cc(OCC[N+](C)(C)CCCC)cc(OCC[N+](C)(C)CCCC)c3)cc2)cc(OCC[N+](C)(C)CCCC)c1.[I-].[I-].[I-].[I-] [Formula G]
A. 1

Q. Input CCCCCC[N+](C)(C)CCCCCCOc1cc(/C=C/c2cc(OCCCCCC[N+](C)(C)CCCCCC)cc(OCCCCCC[N+](C)(C)CCCCCC)c2)cc(OCCCCCC[N+](C)(C)CCCCCC)c1 [Formula E]
A. 1

Q. Input C[N+](C)(C)CCCCOc1cc(/C=C/c2ccc(/C=C/c3cc(OCCCC[N+](C)(C)C)cc(OCCCC[N+](C)(C)C)c3)cc2)cc(OCCCC[N+](C)(C)C)c1.[I-].[I-].[I-].[I-] [Formula F]
A. 8

Q. Input CC[N+](C)(C)CCCCOc1cc(/C=C/c2ccc(/C=C/c3cc(OCCCC[N+](C)(C)CC)cc(OCCCC[N+](C)(C)CC)c3)cc2)cc(OCCCC[N+](C)(C)CC)c1.[I-].[I-].[I-].[I-] [Formula P]
A. 8

Q. Input CCC[N+](C)(C)CCCCOc1cc(/C=C/c2ccc(/C=C/c3cc(OCCCC[N+](C)(C)CCC)cc(OCCCC[N+](C)(C)CCC)c3)cc2)cc(OCCCC[N+](C)(C)CCC)c1 [Formula Q]
A. 4

====

Answer each item with its documented viability at 24 h.
Assay: Cytotoxicity, MTT assay
Format: cell-based
Settings: mouse, NIH 3T3 (ATCC CRL-1658) cells; NIH 3T3; at the concentration given as IC50 bound; read-out: cell viability at the highest or lowest test concentration
State the answer as a number, implicitly in %.

Q. I would be grateful if you could share the reported viability at 24 h for CO/N=C(\C(=O)N[C@@H]1C(=O)N2C(C(=O)[O-])=C(C[n+]3cccc4c3CCC4)CS[C@H]12)c1csc(N)n1 [Cefpirome, reference compound] .
A. 81

Q. Input `C[N+](C)(C)CCCCOc1cc(/C=C/c2ccc(/C=C/c3cc(OCCCC[N+](C)(C)C)cc(OCCCC[N+](C)(C)C)c3)cc2)cc(OCCCC[N+](C)(C)C)c1.[I-].[I-].[I-].[I-]`
A. 56.2
